- System Tested: METTL3/METTL14 (Homo sapiens)
- Sequence (Q86U44 whole entry, species assumed): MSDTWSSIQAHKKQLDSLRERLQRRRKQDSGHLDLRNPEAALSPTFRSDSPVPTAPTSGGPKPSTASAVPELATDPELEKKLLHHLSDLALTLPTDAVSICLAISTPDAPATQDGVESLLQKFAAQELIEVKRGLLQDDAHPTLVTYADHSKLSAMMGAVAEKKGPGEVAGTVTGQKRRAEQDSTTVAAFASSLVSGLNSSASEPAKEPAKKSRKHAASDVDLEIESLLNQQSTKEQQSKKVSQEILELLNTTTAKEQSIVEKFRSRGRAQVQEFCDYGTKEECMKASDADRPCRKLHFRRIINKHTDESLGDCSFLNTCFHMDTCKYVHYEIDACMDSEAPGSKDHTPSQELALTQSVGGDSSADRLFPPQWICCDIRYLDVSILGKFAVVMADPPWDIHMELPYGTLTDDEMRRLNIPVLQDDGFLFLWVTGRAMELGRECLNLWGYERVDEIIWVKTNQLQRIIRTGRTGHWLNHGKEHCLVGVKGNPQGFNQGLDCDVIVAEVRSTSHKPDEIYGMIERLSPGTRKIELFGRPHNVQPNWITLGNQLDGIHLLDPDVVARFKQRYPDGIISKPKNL
- Sequence (Q9HCE5 whole entry partner, species assumed): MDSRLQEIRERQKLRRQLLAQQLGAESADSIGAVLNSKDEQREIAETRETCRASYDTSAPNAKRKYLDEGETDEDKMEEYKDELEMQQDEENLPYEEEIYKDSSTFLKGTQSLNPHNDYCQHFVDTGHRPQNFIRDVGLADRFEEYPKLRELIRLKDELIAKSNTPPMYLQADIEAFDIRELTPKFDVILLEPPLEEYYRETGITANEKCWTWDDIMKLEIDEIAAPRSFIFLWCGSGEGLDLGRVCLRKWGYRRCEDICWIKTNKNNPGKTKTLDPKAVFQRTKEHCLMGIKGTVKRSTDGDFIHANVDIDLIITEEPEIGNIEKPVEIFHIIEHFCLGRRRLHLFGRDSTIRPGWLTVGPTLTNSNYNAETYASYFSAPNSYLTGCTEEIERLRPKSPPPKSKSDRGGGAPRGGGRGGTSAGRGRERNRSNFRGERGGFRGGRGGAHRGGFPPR
- Measurement Notes: METTL3-14 standard enzyme assay (3H-SAM flashplate)
- Condition Description: Table 4; METTL3 biochemical assay
pIC50: −log10 of the molar value.
Record form. Attribute: pIC50. Fill in for each entry.

Task item: For Cn1ccc(-c2cn([C@@H]3O[C@H](C(=O)NCCc4c[nH]cn4)[C@@H](O)[C@H]3O)c3ncnc(N)c23)n1 , what is its reported pIC50?
Reply: 6.00 to 7.00

Task item: For Cn1ccc(-c2cn([C@@H]3O[C@H](C(=O)Nc4cccc5nsnc45)[C@@H](O)[C@H]3O)c3ncnc(N)c23)n1 , what is its reported pIC50?
Reply: 6.00 to 7.00

Task item: For Cn1ccc(-c2cn([C@@H]3O[C@H](C(=O)NC4CCN(CCN)CC4)[C@@H](O)[C@H]3O)c3ncnc(N)c23)n1 , what is its reported pIC50?
Reply: ≤ 6.00

Task item: For CN1CCC(N(CCC#N)C(=O)[C@H]2O[C@@H](n3cc(-c4ccn(C)n4)c4c(N)ncnc43)[C@H](O)[C@@H]2O)CC1 , what is its reported pIC50?
Reply: 6.00 to 7.00

Task item: For Cn1ccc(-c2cn([C@@H]3O[C@H](C(=O)Nc4cnccn4)[C@@H](O)[C@H]3O)c3ncnc(N)c23)n1 , what is its reported pIC50?
Reply: ≤ 6.00

Task item: For Cn1ccc(-c2cn([C@@H]3O[C@H](C(=O)N[C@H]4CCCNC4)[C@@H](O)[C@H]3O)c3ncnc(N)c23)n1 , what is its reported pIC50?
Reply: 6.00 to 7.00

Task item: For Cn1ccc(-c2cn([C@@H]3O[C@H](C(=O)NC4CCN(C5CCC5)CC4)[C@@H](O)[C@H]3O)c3ncnc(N)c23)n1 , what is its reported pIC50?
Reply: 6.00 to 7.00

Task item: For Cc1noc(NC(=O)[C@H]2O[C@@H](n3cc(-c4ccn(C)n4)c4c(N)ncnc43)[C@H](O)[C@@H]2O)c1C , what is its reported pIC50?
Reply: ≤ 6.00

Task item: For Cn1ccc(-c2cn([C@@H]3O[C@H](C(=O)NCCN4CCNC4=O)[C@@H](O)[C@H]3O)c3ncnc(N)c23)n1 , what is its reported pIC50?
Reply: ≤ 6.00

Task item: For Cn1ccc(-c2cn([C@@H]3O[C@H](C(=O)NC4CCN(c5ccccc5)CC4)[C@@H](O)[C@H]3O)c3ncnc(N)c23)n1 , what is its reported pIC50?
Reply: 6.00 to 7.00

Task item: For Cn1ccc(-c2cn([C@@H]3O[C@H](C(=O)NCC#N)[C@@H](O)[C@H]3O)c3ncnc(N)c23)n1 , what is its reported pIC50?
Reply: ≤ 6.00

Task item: For Cn1ccc(-c2cn([C@@H]3O[C@H](C(=O)Nc4ccc(OCCN5CCOCC5)cc4)[C@@H](O)[C@H]3O)c3ncnc(N)c23)n1 , what is its reported pIC50?
Reply: 6.00 to 7.00

Task item: For Cn1ccc(-c2cn([C@@H]3O[C@H](C(=O)N[C@H]4C[C@@H](O)C4)[C@@H](O)[C@H]3O)c3ncnc(N)c23)n1 , what is its reported pIC50?
Reply: ≤ 6.00
